# Tested on: MOLT-4 leukemia
# protocol-notes: NCI tumour cell line growth inhibition, 48 h; in the data active means GI50 below about 0.43 µM; inactive means the rest
A correct response names exactly one class from 1 (active), 0 (inactive)

Answered examples (2):
compound	assigned-class
COc1cc2c(cc1OC)-c1ccc3cc4c(cc3c1N(CCN1CCCC1)C2)OCO4	1
COc1cc2cc(C(=O)N3CC(CCl)c4c3cc(NC(=O)C(C)(C)c3ccccc3[N+](=O)[O-])c3ccccc43)[nH]c2c(OC)c1OC (stereo not drawn)	0

Field: outcome | Entry: CC[C@](C)(O)C(=O)O[C@H]1C(=O)O[C@@H]2C[C@H]3C(C)=CC(=O)[C@@H](O)[C@]3(C)[C@H]3[C@@]4(O)OC[C@]32[C@@H]1[C@@H](C)[C@H]4O
1

====

# System: U251 CNS
# protocol-notes: NCI tumour cell line growth inhibition, 48 h
Catalogue of compounds with associated TGI

For orientation, consider the following solved cases.
compound	result
CN(C)c1ccc2c(NCCCCCCNc3ccnc4cc(N(C)C)ccc34)ccnc2c1	24.3 µM
C=CCONC(=O)c1ccc(Cl)cc1	> 100 µM
CC(C)c1ccccc1SC1CC(=O)CC(Sc2ccccc2C(C)C)C12O[C@H](c1ccccc1)[C@@H](c1ccccc1)O2 (stereo not given in full)	40.1 µM
COc1ccc(/C=C(\Cl)c2ccc(OC)c(OC)c2)cc1OC	> 100 µM
CSC1=N[C@H](c2ccccc2)CS1	> 100 µM
CC(=O)[O][Pb]([O]C(C)=O)([c]1ccccc1)[c]1ccccc1	10 µM
O=C(O)C1CC2C3CCC2C1C3=O (stereo not given)	> 100 µM
O=C(Nc1cccc(Cl)c1)Nc1ncc(CCNc2ncnc3ccsc23)s1	> 45.7 µM
CC(=O)OCC(=O)[C@@]1(O)CC[C@H]2[C@@H]3CCC4=CC(=O)[C@H](C)C[C@]4(C)[C@H]3[C@@H](O)C[C@@]21C	> 100 µM
COc1ccccc1C1CC(=O)CC(c2ccccc2OC)C12C(=O)NC(=S)NC2=O (stereo not given)	> 100 µM

Looking for the measured TGI of CC12CCC(=O)C=C1CCC1C2CCC2(C)C(C(=O)Cn3cnc4c(=S)nc[nH]c43)CCC12 (stereo not given) , can you help?
> 100 µM

Looking for the measured TGI of NC1CC(=O)c2cc(Cl)sc21 (stereo not given) , can you help?
> 100 µM

Looking for the measured TGI of C=C1C(=O)O[C@H]2C[C@@H](C)[C@@H]3CC(=O)OC[C@@]3(C)CC12 (stereo not given in full) , can you help?
> 100 µM

Looking for the measured TGI of CCn1c(-c2nonc2N)nc2cncc(C(=O)N3CCNCC3)c21 , can you help?
> 25 µM

Looking for the measured TGI of NS(=O)(=O)c1cc2c(cc1Cl)NC(C(=O)c1cc(=O)c3ccc(O)cc3o1)=NS2(=O)=O , can you help?
> 100 µM

Looking for the measured TGI of O=c1cc(CNc2cc(F)cc(F)c2)c2ccc(I)cc2[nH]1 , can you help?
> 100 µM

Looking for the measured TGI of CSc1nnc(CCSc2ccnc3c(C(F)(F)F)cccc23)o1 , can you help?
> 100 µM

Looking for the measured TGI of Cc1c2cnccc2c(C)c2c1[nH]c1ccc(O)cc12 , can you help?
> 10 µM

Looking for the measured TGI of Cc1cc(N2CCCCC2)nc(N(CCNc2ccnc3cc(Cl)ccc23)Cc2ccco2)n1 , can you help?
3.19 µM

Looking for the measured TGI of COc1cc2cc(C(=O)N3CC(CCl)c4c3cc(NC(=O)C(C)(C)c3ccccc3[N+](=O)[O-])c3ccccc43)[nH]c2c(OC)c1OC (stereo not given) , can you help?
> 600 µM

Looking for the measured TGI of CCOC(=O)NC(C(F)(F)F)(C(F)(F)F)P(=O)(OC(C)C)OC(C)C , can you help?
> 100 µM

Looking for the measured TGI of O=C(CCN1CCCC1)Nc1ccc2c(NCc3ccc(F)cc3)c3ccccc3nc2c1 , can you help?
1.88 µM

====

# System: OVCAR-3 ovarian
# protocol-notes: NCI tumour cell line growth inhibition, 48 h; in the data active = GI50 below about 0.43 µM; inactive = the rest
A correct response names exactly one class from active, inactive

Answered examples (5):
compound	experimental-system	assigned-class
C=C(C)[C@@H]1CC=C(CO)CC1	OVCAR-3 ovarian	inactive
O=C(CCN1CCCC1)Nc1ccc2c(NCc3ccc(F)cc3)c3ccccc3nc2c1	OVCAR-3 ovarian	inactive
CC12CCC=CC1CCC1C2CCC2(C)C(c3ccc(=O)oc3)CCC12O (stereo unspecified)	OVCAR-3 ovarian	active
CCc1ccc(NC(=O)Nc2c[nH]c3ccccc23)cc1	OVCAR-3 ovarian	inactive
Cc1cc(N2CCCCC2)nc(N(CCNc2ccnc3cc(Cl)ccc23)Cc2ccco2)n1	OVCAR-3 ovarian	inactive

Here's the next entry for you.
Field: outcome | Entry: CCN=C1C=CC(=C(c2ccc(N(C)C)cc2)c2ccc(N(C)C)cc2)c2ccccc21
active

====

# Test system: LOX IMVI melanoma
# protocol-notes: NCI tumour cell line growth inhibition, 48 h
Catalogue of compounds with associated TGI

For orientation, consider the following solved cases.
compound	experimental-system	measured-metric	result
CCOC(=O)CSc1ccnc(=O)[nH]1	LOX IMVI melanoma	TGI	> 100 µM
CC1CC2C(=O)NC(=O)C2c2[nH]c3ccccc3c21 (stereo unspecified)	LOX IMVI melanoma	TGI	> 100 µM

Query TGI on LOX IMVI melanoma for O=C(NO)c1ccc([N+](=O)[O-])cc1
> 100 µM

Query TGI on LOX IMVI melanoma for COc1cc(/C=C/C(=O)c2sc(-n3nc(-c4ccccc4)cc3-c3ccccc3)nc2C)ccc1O
> 100 µM

Query TGI on LOX IMVI melanoma for CN(C)c1ccc(/C=C/C=C\C2=CC(=C\C=C/C=C3C=CC(=[N+](C)C)C=C3)/Sc3ccccc32)cc1
64.1 µM

Query TGI on LOX IMVI melanoma for CC(C)OP(=O)(OC(C)C)C(C(C)C)N(C)/C(N)=N\C1=NC(C(F)(F)F)(C(F)(F)F)N=C(C(C(F)(F)F)C(F)(F)F)O1 (stereo unspecified)
3.77 µM

====

Catalogue of compounds with associated GI50
# System: OVCAR-3 ovarian
# protocol-notes: NCI tumour cell line growth inhibition, 48 h

compound	GI50
c1ccc2[nH]c(-c3ccc(N4CCN(c5ccc(-c6nc7ccccc7[nH]6)cc5)CC4)cc3)nc2c1	> 100 µM
N#CSc1ncnc2nc[nH]c12	1.66 µM
COc1ccccc1[N-]C(C1=C([O-])c2ccccc2C1=O)c1ccccc1.COc1ccccc1[N-]C(C1=C([O-])c2ccccc2C1=O)c1ccccc1.[Cu+2] (centres undefined)	13.8 µM
O=S(=O)(c1ccc(NC(=S)NCc2cccnc2)cc1)N1CCCCC1	52.6 µM
Cc1ccc2[nH]c(C(=O)NN3C(=O)CSC34CCCCC4C)c(-c3ccccc3)c2c1 (centres undefined)	13.9 µM

Query GI50 on OVCAR-3 ovarian for c1ccc2nc(Cn3c[n+](Cc4ccc5ccccc5n4)c4ccccc43)ccc2c1
1.6 µM

Query GI50 on OVCAR-3 ovarian for CC1(C)CCC2(C(=O)OC3OC(CO)C(O)C(O)C3O)CC[C@]3(C)C(=CCC4C5(C)CC[C@H](OC6OC(C(=O)O)C(O)C(O)C6O)C(C)(C)C5CCC43C)C2C1 (some centres undefined)
3.27 µM

Query GI50 on OVCAR-3 ovarian for N#CC(C#N)=CN1CCN(C(=O)c2ccco2)C1=S
11.2 µM

Query GI50 on OVCAR-3 ovarian for CN(C)CCCNC(=O)c1cc(NC(=O)CCNS(=O)(=O)c2ccc3c(c2)C(=O)c2ccccc2C3=O)cn1C
> 100 µM

====

Catalogue of compounds with associated TGI
# Tested on: M14 melanoma
# protocol-notes: NCI tumour cell line growth inhibition, 48 h
Where a SMILES comes first, the peptide text is derived from it. The star is where a group is joined. Cbz = O=C(OCc1ccccc1)*; OBn = c1ccc(CO*)cc1

For orientation, consider the following solved cases.
compound	TGI
C=C1C(=O)O[C@H]2C[C@@H](C)[C@@H]3CC(=O)OC[C@@]3(C)CC12 (some centres undefined)	31.6 µM
C=C1C(=O)OC2CC3(C)C=CC(=O)C(=C)C3CC12 (centres undefined)	2.86 µM
Oc1ccccc1/C=N/Nc1nnc2c3ccccc3c3ccccc3c2n1	> 100 µM
C=C1C(=O)O[C@@H]2C1CC(=O)C(C)CC/C=C(\C)CCC[C@H](C)[C@H]2OC(C)=O (some centres undefined)	16 µM
CC1=C2CCCC2C/C(=N/Nc2ccc([N+](=O)[O-])cc2[N+](=O)[O-])CC1 (centres undefined)	> 100 µM

Query TGI on M14 melanoma for NS(=O)(=O)c1cc2c(cc1Cl)NC(C(=O)c1cc(=O)c3ccc(O)cc3o1)=NS2(=O)=O
> 100 µM

Query TGI on M14 melanoma for COC(=O)CNC(=O)C(C)NC(=O)C(CC(=O)OCc1ccccc1)NC(=O)OCc1ccccc1 (stereo not drawn) (Cbz-Asp(OBn)-Ala-Gly-OMe; configuration not given here)
> 100 µM

Query TGI on M14 melanoma for CCOC(=O)C=C1CCN(C(=O)c2ccccc2)CC1
> 100 µM

Query TGI on M14 melanoma for CN(C)c1ccc2c(NCCCCCCNc3ccnc4cc(N(C)C)ccc34)ccnc2c1
> 100 µM

Origin of the recorded values: PubChem BioAssay (NCI)
